- Tested on: CCRIS mutagenicity, Ames/micronucleus/aberration tests
- protocol-summary: CCRIS mutagenicity studies
- reported-conditions: Test System: AMES SALMONELLA TYPHIMURIUM; Strain/Indicator: TA100; Metabolic Activation: NONE; Method: STANDARD PLATE
Activity calls are given as the source filed them. How the calls were made is not given here.
Classes used: T for active, F for inactive

compound | category
CC(=O)OCC1=CO[C@@H](OC(=O)CC(C)C)[C@H]2C1=C[C@H](OC(=O)CC(C)C)[C@]21CO1 | F
C=C(C)C(=O)OCCCCCCOC(=O)C(=C)C | F
Cc1ccc(O)c(N)c1 | F
NC(=O)C1(C(N)=O)OC1C(=O)c1ccccc1 (stereo unspecified) | F
Cn1cc(C[C@@]2(O)C(=O)O[C@@H]3[C@@H](O)CO[C@@]32O)c2ccccc21 | T
CC(=O)[C@]1(O)Cc2c(O)c3c(c(O)c2[C@@H](O[C@H]2C[C@H](N)[C@H](O)[C@H](C)O2)C1)C(=O)c1c(O)cccc1C3=O | T
NC(=O)c1cc[n+](COC[n+]2ccccc2/C=N/O)cc1 | F
O=C(O)C(Cl)Cl | F
Cc1cc(N)c([N+](=O)[O-])cc1N | F
C[n+]1ccn(COCCC(C)(C)[N+](=O)[O-])c1/C=N/O | F
O=C1CCO1 | T

* * *

- System: CCRIS mutagenicity, Ames/micronucleus/aberration tests
- protocol-summary: CCRIS mutagenicity studies
- reported-conditions: Test System: AMES SALMONELLA TYPHIMURIUM; Strain/Indicator: TA1537; Metabolic Activation: NONE; Method: STANDARD PLATE
Activity calls are given as the source filed them. The rule behind the calls is not given here.
Outcomes: True for active, False for inactive

compound | system-under-test | category
Cn1c([N+](=O)[O-])cnc1C(O)c1cc(C(C)(C)C)cc(C(C)(C)C)c1O (stereo not given) | CCRIS mutagenicity, Ames/micronucleus/aberration tests | False
CN(C)CCNC(=O)c1cccc2cc(-c3ccccc3)oc12 | CCRIS mutagenicity, Ames/micronucleus/aberration tests | True
Cc1nc2ccccc2s1 | CCRIS mutagenicity, Ames/micronucleus/aberration tests | False
O=C1Nc2ccc(Cl)cc2C(c2ccccc2)=NC1O (stereo not given) | CCRIS mutagenicity, Ames/micronucleus/aberration tests | False
C=C(C)C(=O)OC(C)(C)C | CCRIS mutagenicity, Ames/micronucleus/aberration tests | False

* * *

- System: CCRIS mutagenicity, Ames/micronucleus/aberration tests
- protocol-summary: CCRIS mutagenicity studies
- reported-conditions: Test System: AMES SALMONELLA TYPHIMURIUM; Strain/Indicator: TA98(NR); Metabolic Activation: RAT, LIVER, S-9, AROCLOR 1254; Method: STANDARD PLATE
Calls of active or inactive are those of the source. No rule for the calls is given here.
Outcomes: True (active), False (inactive)

compound | system-under-test | category
CC(=O)N(O)c1ccc2ccc3cccc4ccc1c2c34 | CCRIS mutagenicity, Ames/micronucleus/aberration tests | True
O=[N+]([O-])c1ccc2c3c4c(cccc4c4ccccc4c13)[C@H](O)[C@H]2O | CCRIS mutagenicity, Ames/micronucleus/aberration tests | True
CC(=O)N(O)c1ccc([N+](=O)[O-])cc1 | CCRIS mutagenicity, Ames/micronucleus/aberration tests | False
O=[N+]([O-])c1cc2c([nH]c3ccccc32)c([N+](=O)[O-])c1O | CCRIS mutagenicity, Ames/micronucleus/aberration tests | True
O=c1oc2cc([N+](=O)[O-])ccc2c2ccccc12 | CCRIS mutagenicity, Ames/micronucleus/aberration tests | True
O=[N+]([O-])c1ccc2ccc3c4c(cc5ccc1c2c53)C=CCC4 | CCRIS mutagenicity, Ames/micronucleus/aberration tests | True
O=C(Nc1ccc([N+](=O)[O-])cc1Cl)c1cc(Cl)ccc1O | CCRIS mutagenicity, Ames/micronucleus/aberration tests | False
O=[N+]([O-])c1ccc2c3c4c(cccc4c4ccccc4c13)C1OC21 (centres undefined) | CCRIS mutagenicity, Ames/micronucleus/aberration tests | False
O=[N+]([O-])c1ccc2ccc3cc4c(c5ccc1c2c35)C=CCC4 | CCRIS mutagenicity, Ames/micronucleus/aberration tests | True
